# tested.system: UniProt:P50053
# assay.remarks: KHK Biochemical Assay (IC50), ADP-Glo, KHK-C
# applied.conditions: ADP-Glo; average of at least two separate assays
pIC50: −log10 of the molar value.
property.name: pIC50

>  <compound>
C[C@H]1CCN1c1nc2c(c(-c3ccc4c(c3)NC(=O)CNC4)n1)CCC2 [Example 855]

>  <measured>
7.09

$$$$
>  <compound>
C[C@H]1CCN1c1nc2c(c(-c3ccc4cnccc4c3)n1)CCC2 [Example 163]

>  <measured>
7.31

$$$$
>  <compound>
Cc1cc(-c2nc(N3CC[C@@H]3C)nc3c2CCC3)cc2c1C(NS(C)(=O)=O)CC2 (stereo partly drawn) [Example 895]

>  <measured>
7.42

$$$$
>  <compound>
C[C@H]1CCN1c1nc2c(c(-c3cccc([C@@H]4C[C@H]4C(=O)O)c3)n1)CCC2 (single isomer, unassigned) [Example 90]

>  <measured>
7.95

$$$$
>  <compound>
C[C@H]1CCN1c1nc2c(c(-c3ccn(CCC(=O)O)n3)n1)CCC2 [Example 24]

>  <measured>
6.38

$$$$

A. C[C@H]1CCN1c1nc2c(c(-c3ccc(-c4nccn4C)cc3)n1)CCC2 [Example 101]
B. C[C@H]1CCN1c1nc(-c2ccc(C(N)=O)cc2)c2c(n1)C(F)(F)CCC2 [Example 157]
Incoming: Would you kindly point out which of A and B has the smaller pIC50 figure? Please identify the chosen entry by its label.
Outgoing: B

I. C[C@H]1CCN1c1nc2c(c(-c3cccc(-c4nnn[nH]4)c3)n1)CCC2 [Example 876]
II. C[C@H]1CN(c2nc3c(c(-c4ccc(C(N)=O)cc4)n2)CCC3)[C@H]1C [Example 107]
Incoming: Between I and II , which one shows the larger pIC50 value? Please identify the chosen entry by its label.
Outgoing: I
(I: 7.00, II: 5.97)

P. COC(=O)NC1COc2cc(-c3nc(N4C[C@@H](O)[C@@H]4C)nc4c3CCC4(F)F)cc(OC)c21 (stereo partly drawn) [Example 824]
Q. C[C@H]1CCN1c1nc2c(c(-c3cc(N)cc(C(N)=O)c3)n1)CCC2 [Example 299]
R. C[C@H]1CCN1c1nc2c(c(-c3ccc4c(ccn4C)c3)n1)CCC2 [Example 275]
Incoming: Please list the entries, largest pIC50 first. In your reply, arrange the labels in the requested order.
Outgoing: P, Q, R

###

# tested.system: KHK-C expressed in NRK-52E cells (Homo sapiens (Human), UniProt P50053)
# Sequence (P50053 whole entry): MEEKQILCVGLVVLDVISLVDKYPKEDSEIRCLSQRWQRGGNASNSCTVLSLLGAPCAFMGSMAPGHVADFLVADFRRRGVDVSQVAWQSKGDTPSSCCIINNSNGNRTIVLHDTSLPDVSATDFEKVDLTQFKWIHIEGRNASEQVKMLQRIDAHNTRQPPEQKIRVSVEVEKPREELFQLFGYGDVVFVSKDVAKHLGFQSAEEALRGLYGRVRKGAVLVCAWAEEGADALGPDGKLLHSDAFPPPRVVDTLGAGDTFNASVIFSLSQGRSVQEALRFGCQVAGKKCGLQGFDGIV
# assay.remarks: KHK-C Cell-based Assay (EC50), NRK CTG, fructose-mediated ATP-depletion
pEC50: −log10 of the molar value.
property.name: pEC50

>  <compound>
NC(=O)c1ccc(-c2nc(N3CCCC34CC4)nc3c2CCC3)cc1

>  <pEC50>
5.80

$$$$
>  <compound>
C[C@H]1CCN1c1nc(-c2cccc(C(N)=O)c2)c2c(n1)C1CC1C2 (stereo partly shown)

>  <pEC50>
6.20

$$$$
>  <compound>
C[C@H]1CCN1c1nc2c(c(-c3cccc(C(N)C(F)(F)F)c3)n1)CCC2 (stereo partly shown)

>  <pEC50>
6.37

$$$$
>  <compound>
C[C@H]1CCN1c1nc2c(c(-c3ccc(CN)cc3)n1)CCC2

>  <pEC50>
6.75

$$$$
>  <compound>
N#C[C@H]1CCN1c1nc(-c2ccc(C3(N)COC3)cc2)c2c(n1)C(F)(F)CC2

>  <pEC50>
7.45

$$$$

I. C[C@H]1[C@H](O)CN1c1nc2c(c(-c3ccc4c(c3)CCNC4=O)n1)CCC2
II. C[C@H]1CCN1c1nc2c(c(-c3ccc4c(c3)[C@]3(C[C@H]3C#N)C(=O)N4)n1)CCC2 (mixture of isomers)
III. C[C@H]1CCN1c1nc2c(c(-c3ccc4nc(O)ccc4c3)n1)CCC2
IV. C[C@H]1CCN1c1nc2c(c(-c3ccc4c(c3)OCCNC4=O)n1)CCC2
Incoming: Please list the entries, largest pEC50 first. In your reply, arrange the labels in the requested order.
Outgoing: IV, II, I, III
(IV: 7.73, II: 7.32, I: 6.97, III: 6.60)

// data source = patent US12410160B2
